System: S. vaccaria PCY1
Sequence (as listed by the source): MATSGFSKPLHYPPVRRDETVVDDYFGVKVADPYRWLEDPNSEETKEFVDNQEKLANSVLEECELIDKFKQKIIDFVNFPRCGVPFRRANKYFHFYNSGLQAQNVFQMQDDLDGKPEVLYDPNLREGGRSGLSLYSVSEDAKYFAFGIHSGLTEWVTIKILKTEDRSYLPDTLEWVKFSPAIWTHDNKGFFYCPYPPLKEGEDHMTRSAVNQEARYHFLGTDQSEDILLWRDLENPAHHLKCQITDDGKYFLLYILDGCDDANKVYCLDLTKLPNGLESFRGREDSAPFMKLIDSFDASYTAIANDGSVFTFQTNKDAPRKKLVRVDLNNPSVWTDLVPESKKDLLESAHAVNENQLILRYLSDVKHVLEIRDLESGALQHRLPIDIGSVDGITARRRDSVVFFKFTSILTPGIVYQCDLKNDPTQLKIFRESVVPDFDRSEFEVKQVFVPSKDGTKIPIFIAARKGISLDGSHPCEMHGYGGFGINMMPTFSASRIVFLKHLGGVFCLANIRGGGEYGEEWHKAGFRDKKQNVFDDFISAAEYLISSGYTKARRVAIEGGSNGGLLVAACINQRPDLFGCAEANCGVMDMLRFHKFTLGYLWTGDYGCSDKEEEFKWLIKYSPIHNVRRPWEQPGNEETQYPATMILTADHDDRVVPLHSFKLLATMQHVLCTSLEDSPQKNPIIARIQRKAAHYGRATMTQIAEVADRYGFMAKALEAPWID
test-protocol: In vitro assay of recombinant S. vaccaria PCY1 with wild type and mutant presegetalin substrates, products detected by LC/MS
Type: biochemical, Saponaria vaccaria
Parameters: key: +=presence; −=absence
experimental-setup: substrates tested for cyclization by S. vaccaria PCY1
Square brackets hold non-standard residues; d marks the D form. Ends that are not written are not given here.
reported-metric: LP (linear peptide product detected by LC/MS after in vitro assay)

Reference set (5 entries):
> print(dat)
                                  substance  recorded.value
1  30 (GVPVW[dA]FQAKDVENASAPV) [compound 30]               −
2  35 (GVAWAFQAKDVENASAPV; Presegetalin B1[14,31]) [compound 35]               −
3  37 (GLSFAFQAKDAENASSPV; Presegetalin D1[14,31] P20Q) [compound 37]               −
4  4 (GVPVWAFQAKD; Presegetalin A1[14,24]) [compound 4]               +
5  32 (GV[dP]V[dA]AFQAKDVENASAPV) [compound 32]               −

We next turn to a different substance, shown below.
Looking up 18 (GVPVWAFQAKDAENASAPV; Presegetalin A1[14,32] V25A) [compound 18] , I found its LP (linear peptide product detected by LC/MS after in vitro assay) recorded as +

###

Test system: S. vaccaria PCY1
test-protocol: In vitro assay of recombinant S. vaccaria PCY1 with wild type and mutant presegetalin substrates, products detected by LC/MS
Format: biochemical, Saponaria vaccaria
Design: key: +=presence; −=absence
experimental-setup: substrates tested for cyclization by S. vaccaria PCY1
Square brackets hold non-standard residues; d marks the D form. Ends that are not written are not given here.
reported-metric: LP (linear peptide product detected by LC/MS after in vitro assay)

Reference set (10 entries):
> print(dat)
                                   substance  recorded.value
 1  25 (GVPVWAFQAKDVENASAPA; Presegetalin A1[14,32] V32A) [compound 25]               +
 2  8 (GAPVWAFQAKDVENASAPV; Presegetalin A1[14,32] variant aa15 = alanine) [compound 8]               +
 3  7 (AVPVWAFQAKDVENASAPV; Presegetalin A1[14,32] variant aa14 = alanine) [compound 7]               +
 4  28 (GVP[dV]WAFQAKDVENASAPV) [compound 28]               −
 5  13 (GVPVWAAQAKDVENASAPV; Presegetalin A1[14,32] F20A) [compound 13]               +
 6  11 (GVPVAAFQAKDVENASAPV; Presegetalin A1[14,32] variant aa18 = alanine) [compound 11]               −
 7  38 (GVKYAFQPKDSENASAPV; Presegetalin G1[14,31]) [compound 38]               −
 8  33 (GVPAVWAFQAKDVENASAPV; Presegetalin A1[14,32] ins 16A17) [compound 33]               +
 9  1 (GVPVWAFQAKDVENASAPV; listed as Saponaria vaccaria) [compound 1]               +
10  42 (FGTHGLPAPIQVPNGMDDACAPM; Presegetalin J1[14,36]) [compound 42]               −

Looking up 17 (GVPVWAFQAKAVENASAPV; Presegetalin A1[14,32] D24A) [compound 17] , I found its LP (linear peptide product detected by LC/MS after in vitro assay) recorded as +
